System: CBRs expressed in PC-3 membranes
experimental-protocol: [^3H]WIN-55,212-2 competitive binding screen, PC-3 membranes
Parameters: species or system human
value-type: displacement of [^3H]WIN-55,212-2

displacement of [^3H]WIN-55,212-2 recorded for this molecule, OCCOc1ccc(/C(=C(/CCCl)c2ccccc2)c2ccccc2)cc1 [OSP, ospemifene] , is failed to displace

So for O=C(NC12CC3CC(CC(C3)C1)C2)c1nn(CCCCCF)c2ccccc12 [5F-AKB48] , the logged displacement of [^3H]WIN-55,212-2 turned out to be failed to displace

Measured displacement of [^3H]WIN-55,212-2, Cc1c(C(=O)c2cccc3ccccc23)c2cccc3c2n1[C@@H](CN1CCOCC1)CO3 [WIN-55,212-3] : 20.7 ± 10.3%

Entry CCCCC/C=C\C/C=C\C/C=C\C/C=C\CCCC(=O)NCCCl [ACEA] — recorded displacement of [^3H]WIN-55,212-2 = failed to displace

====

CBRs expressed in PC-3 membranes: reported Ki for various molecules.
One number for each entry, in µM.

# Ki (molecule: Cc1c(C(=O)NN2CCCCC2)nn(-c2ccc(Cl)cc2Cl)c1-c1ccc(Cl)cc1 ) is 0.0541

Could you now consider this next molecule?
Sample COc1ccc2c(c1)c(CCN1CCOCC1)c(C)n2C(=O)c1cccc(Cl)c1Cl ; Ki observed: 0.296

====

target-system: CBRs expressed in DU-145 membranes
value-type: Ki

Measured Ki, Cc1c(C(=O)NN2CCCCC2)nn(-c2ccc(Cl)cc2Cl)c1-c1ccc(Cl)cc1 [rimonabant] : 102 nM

====

target-system: human CB2 receptors (Homo sapiens)
Sequence (P34972 whole entry): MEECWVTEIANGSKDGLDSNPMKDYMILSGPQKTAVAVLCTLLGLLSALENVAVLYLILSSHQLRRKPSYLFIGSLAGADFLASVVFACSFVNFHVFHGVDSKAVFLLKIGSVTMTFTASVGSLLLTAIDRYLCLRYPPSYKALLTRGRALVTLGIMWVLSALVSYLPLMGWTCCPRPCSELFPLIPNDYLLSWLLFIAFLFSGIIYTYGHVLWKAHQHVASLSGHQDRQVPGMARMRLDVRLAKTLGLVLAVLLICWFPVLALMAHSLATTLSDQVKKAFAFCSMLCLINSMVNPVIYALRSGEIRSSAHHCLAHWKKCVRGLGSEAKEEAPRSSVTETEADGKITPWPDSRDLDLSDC
value-type: Ki

GET /values?item= COc1ccc2c(c1)c(CCN1CCOCC1)c(C)n2C(=O)c1cccc(Cl)c1Cl &system= human CB2 receptors (Homo sapiens) returns Ki: 0.051 µM

====

target-system: non-canonical CBRs expressed in HeLa
experimental-protocol: Homologous receptor binding, HeLa
experimental-context: homologous competition with [^3H]WIN-55,212-2 (1 nM), read-out: affinity (KD)
value-type: pKd
One number for each entry, as −log10 of the molar value.

The measured pKd associated with Cc1c(C(=O)c2cccc3ccccc23)c2cccc3c2n1[C@H](CN1CCOCC1)CO3 reads 8.15

====

System: CBRs expressed in DU-145 membranes
Assay type: binding, human
Experimental: The assay was conducted as previously detailed. […] All binding reactions were conducted in triplicate, in a final volume of 1 mL, and, following mixing, were incubated for 20 min in a 37 °C water bath to achieve equilibrium. […] Filters were incubated at room temperature for 24 h in scintillation fluid, vortexed, and radioactivity (measured as DPMs) was quantified via a liquid scintillation spectrophotometer (Tri Carb 2100 TR Liquid Scintillation Analyzer, Packard Instruments, Meriden, CT, USA). […]
value-type: displacement of [^3H]WIN-55,212-2

The cases that follow already have their displacement of [^3H]WIN-55,212-2 on record.
The molecule listed as Cc1c(C(=O)c2cccc3ccccc23)c2cccc3c2n1[C@@H](CN1CCOCC1)CO3 [WIN-55,212-3] has a reported displacement of [^3H]WIN-55,212-2 of 13.9 ± 2.7%

Cc1ccc(C(=O)c2cn(CCCCCF)c3ccccc23)c2ccccc12 [MAM-2201] yielded displacement of [^3H]WIN-55,212-2 of failed to displace

The reported displacement of [^3H]WIN-55,212-2 of the molecule OCCOc1ccc(/C(=C(/CCCl)c2ccccc2)c2ccccc2)cc1 [OSP, ospemifene] was failed to displace

What the record says about O=C(NC12CC3CC(CC(C3)C1)C2)c1nn(CCCCCF)c2ccccc12 [5F-AKB48] : displacement of [^3H]WIN-55,212-2 is failed to displace

Now let's try a different one.
displacement of [^3H]WIN-55,212-2 recorded for this molecule, C=C(C)[C@@H]1CCC(C)=C[C@H]1c1c(O)cc(CCCCC)cc1O [CBD, cannabidiol] , is failed to displace

Values were extracted from paper PMC8954350.
